Tested on: MALME-3M melanoma
measurement.protocol: NCI-60 one-dose screen, 48 h
setup.conditions: 10 µM unless noted
This is part of a sample that, as a whole, favours compounds with a hit. Of some 83,000 tested, about 20% had one in any assay. Activity calls are given as the source filed them. Rule for the calls: active = growth percent below 10; inactive = the rest.
Outcomes: active, inactive

compound	cat
COc1ccc(CCN2C(=O)C(C)(C)SC2=S)cc1OC	inactive
Nc1c2c(nc3ccc(Br)cc13)CC(c1ccccc1)CC2=O (stereo not drawn)	inactive
O=C1CCC/C=C\C[C@H]2C=C(Cl)C(=O)/C2=C/C[C@H](CCCCC(F)(F)F)OC(=O)CCC/C=C\C[C@H]2C=C(Cl)C(=O)/C2=C/C[C@H](CCCCC(F)(F)F)O1	active
C[C@@H](Oc1ccc(C(=O)NS(=O)(=O)C(C)(C)C)cc1C(F)(F)F)c1ccc(Oc2ccccc2)cn1	inactive
COc1ccc(OC)c(-c2c(C#N)c(-c3ccco3)nc3c2c(-c2ccccc2)nn3-c2ccccc2)c1	inactive
CN(C)CCCCC(C(=O)CBr)(c1ccccc1)c1ccccc1	active
Cc1[c-]onc1C.Cc1[c-]onc1C.[Ag].[Ag].[NH-]S(=O)(=O)c1ccc(N=Nc2cc(N=Nc3ccc(S([NH-])(=O)=O)cc3)c3c(NC(=O)C(Cl)Cl)cccc3c2OC(=O)C(Cl)Cl)cc1	active
CC/C(=N/NC(N)=O)c1ccccc1	inactive
